TARGET ENTITY: GSG2 (human)
METHOD DESCRIPTION: radiometric filter-binding kinase assay, Kinase HotSpot
RECORDED CONDITIONS: compound 0.5 µM; ATP 10 µM
A collection of molecules and their measured residual activity
# value in %; strip the unit string

Recorded results for 4 molecules are shown here.
>>> val("FC(F)(F)c1ccc(/C=C/c2nc(COc3ccc(CCCCn4ccnn4)cc3)co2)cc1")
105
>>> val("O=c1c(-c2ccc(F)cc2)c(-c2ccncc2)[nH]n1-c1ccc(Cl)cc1")
96.5
>>> val("c1ccc(-c2cnc(Nc3ccc(OCCN4CCCC4)cc3)s2)cc1")
106
>>> val("O=c1[nH]c2ccccc2n1C1CCN(Cc2ccc(-c3nc4cc5[nH]cnc5cc4nc3-c3ccccc3)cc2)CC1")
106

Given N#CCCc1ccc2c(c1)-c1[nH]c3ccc([N+](=O)[O-])cc3c1CC(=O)N2 , respond with its residual activity. 110

Given CCOc1cc2ncnc(Nc3cccc(Br)c3)c2cc1OCC , respond with its residual activity. 90.6

Tell me residual activity reported for CCc1nc(-c2ccc(OC)cc2)[nH]c1-c1ccncc1 55.9

----------
TARGET ENTITY: MAPK1 (human) (UniProt P28482)
Sequence (P28482 whole entry, looked up): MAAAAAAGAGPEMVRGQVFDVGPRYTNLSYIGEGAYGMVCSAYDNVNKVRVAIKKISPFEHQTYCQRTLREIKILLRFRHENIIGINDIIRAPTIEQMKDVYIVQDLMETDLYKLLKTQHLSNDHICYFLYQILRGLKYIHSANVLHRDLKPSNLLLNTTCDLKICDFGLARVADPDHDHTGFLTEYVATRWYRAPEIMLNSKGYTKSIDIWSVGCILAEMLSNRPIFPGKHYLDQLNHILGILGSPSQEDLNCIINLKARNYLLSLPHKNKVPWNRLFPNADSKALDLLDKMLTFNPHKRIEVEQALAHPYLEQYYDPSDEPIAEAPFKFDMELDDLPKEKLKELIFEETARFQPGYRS
METHOD DESCRIPTION: radiometric filter-binding kinase assay, Kinase HotSpot
RECORDED CONDITIONS: compound 0.5 µM; ATP 10 µM
// reported residual activity for each item listed
Form entry: value (%) — number only.

Assign residual activity to the following record: FC(F)(F)c1ccc(/C=C/c2nc(COc3ccc(CCCCn4ccnn4)cc3)co2)cc1 88.6

Output measured residual activity for this item: CCc1nc(-c2ccc(OC)cc2)[nH]c1-c1ccncc1 97.2

Name the recorded residual activity of the item N#CCCc1ccc2c(c1)-c1[nH]c3ccc([N+](=O)[O-])cc3c1CC(=O)N2 in your answer. 119

Quote residual activity reported for Nc1ncnc2c1cnn2-c1ccccc1 please. 85.4

Hello, please tell me recorded residual activity for this one: Cn1cc(/C=C2\C(=O)Nc3ccc(S(N)(=O)=O)cc32)c2ccccc21 98.2

Report residual activity, nothing else, for this molecule: N#C/C(=C1/Nc2ccccc2S1)c1ccnc(NCCc2cccnc2)n1 93.5

Determine its reported residual activity: COc1cc2c(Nc3ccc(Br)cc3F)ncnc2cc1OCC1CCN(C)CC1 99.1

Specify reported residual activity for the molecule shown: Cc1cc(Nc2nc(-c3ccccc3)nc3ccccc23)n[nH]1 89.3

Tell us which residual activity value is on record for O=C(O)c1ccc2c3c1cccc3c(=O)n1c3ccccc3nc21 100

Name the recorded residual activity of the molecule listed here: O=S(=O)(NCCNC/C=C/c1ccc(Br)cc1)c1cccc2cnccc12 108

Please report the measured residual activity for O=c1cc(N2CCOCC2)oc2c(-c3ccccc3)cccc12 70.3

Specify residual activity for COc1cc2c(N3CCN(C(=O)Nc4ccc(OC(C)C)cc4)CC3)ncnc2cc1OCCCN1CCCCC1 and stop. 87

For the molecule c1ccc(-c2cnc(Nc3ccc(OCCN4CCCC4)cc3)s2)cc1 , give its measured residual activity value. 83.4

Name the recorded residual activity of the item O=C1NC(=O)c2cc(Nc3ccc(F)cc3)c(Nc3ccc(F)cc3)cc21 in your answer. 121

Give me measured residual activity, please, for this molecule: O=C1NC(=O)c2c1c1c3ccccc3[nH]c1c1[nH]c3cc(Br)ccc3c21 92.4

Give reported residual activity value for O=C(c1ccccc1)c1ccc(N2CCOCC2)cc1O 96.7
